# Tested on: SCLC strain SHP-77
# test_details: Colorimetric tetrazolium (MTT) assay for cell survival, SCLC strain SHP-77
# Format: cell-based, human
# assay_setup: Table 1; SHP-77, MTT, 4 days
# Method: In general, Anti-bradykinin activity was determined by the classical guinea pig ileum assay and on Chinese hamster ovary (CHO) cells expressing cloned human bradykinin B2 receptors. Anti-tumor activity was determined on cultured human cancer cell lines using the standard tetrazolium (MTT) assay. […]
hey, just use condition met if measured MTT: ED50 for killing of SCLC strain SHP-77 in vitro is less than 7 µM, otherwise condition not met

Worked examples follow.
DDD-(DArg-Arg-Aud-Pac-PaF(Fbz)-Arg)2 [M734] | condition met
Aaa-DArg-Arg-Aud-Ser-D5F5-Oic-Arg [M956] | condition not met
DDD-(DArg-Arg-Eac-Ser-DIgl-PFF-Arg)2 [M932] | condition met

Asked: Say whether its MTT: ED50 for killing of SCLC strain SHP-77 in vitro is strictly beneath 7 µM. Entry: TDIM-(DArg-Arg-Pro-Hyp-Gly-Thi-Ser-DIgl-Oic-Arg)2 [B10104-2]
Given back: condition met

Asked: Say whether its MTT: ED50 for killing of SCLC strain SHP-77 in vitro is strictly beneath 7 µM. Entry: DDD-(DArg-Arg-Aud-Ser-DF5F-Oic-Arg)2 [M890]
Given back: condition met

Asked: Say whether its MTT: ED50 for killing of SCLC strain SHP-77 in vitro is strictly beneath 7 µM. Entry: DArg-Arg-Pro-Hyp-Gly-Igl-Ser-DIgl-Oic-Arg [B9430, reference compound]
Given back: condition not met

Asked: Say whether its MTT: ED50 for killing of SCLC strain SHP-77 in vitro is strictly beneath 7 µM. Entry: DDD-(DArg-Arg-Add-Ser-DIgl-PFF-Arg)2 [M864]
Given back: condition met

Asked: Say whether its MTT: ED50 for killing of SCLC strain SHP-77 in vitro is strictly beneath 7 µM. Entry: F5c-DArg-Arg-Add-Ser-DIgl-Oic-Arg [M860]
Given back: condition met

====

# Tested on: SCLC strain SHP-77
# test_details: Colorimetric tetrazolium (MTT) assay for cell survival, SCLC strain SHP-77
# Assay type: cell-based, human
# assay_setup: SCLC strain SHP-77 in vitro
readout_name: MTT: ED50 for killing of SCLC strain SHP-77 in vitro

Here are 6 compounds together with their reported answers.
CC1(C)CC(NC(=O)C(Cc2ccc3ccccc3c2)NC(=O)c2nc(Cl)c(Cl)c(N)c2Cl)CC(C)(C)N1 (stereo not drawn) [M302] | 3.5 µM
Cc1ccc(CSCC(NC(=O)C=Cc2c(F)c(F)c(F)c(F)c2F)C(=O)NC2CC(C)(C)NC(C)(C)C2)cc1 (stereo not drawn) [M456] | 4.7 µM
CC1(C)CC(NC(=O)[C@H](Cc2ccc3ccccc3c2)NC(=O)C(c2ccccc2)c2ccccc2)CC(C)(C)N1 [M272] | 9 µM
CC1(C)CC(NC(=O)C(Cc2cccc3ccccc23)NC(=O)C(Cc2cnc[nH]2)NC(=O)CCCCCCCCCCC(=O)NC(Cc2cnc[nH]2)C(=O)NC(Cc2cccc3ccccc23)C(=O)NC2CC(C)(C)NC(C)(C)C2)CC(C)(C)N1 (stereo not drawn) [M660] | 30 µM
CC1(C)CC(NC(=O)[C@H](Cc2ccc3ccccc3c2)NC(=O)C2=CN3CCC2CC3)CC(C)(C)N1 [M252] | Inact
CC1(C)CC(NC(=O)[C@H](Cc2ccc3ccccc3c2)NC(=O)C=Cc2ccc(NC(=O)CCCCCCCCCCC(=O)Nc3ccc(C=CC(=O)N[C@@H](Cc4ccc5ccccc5c4)C(=O)NC4CC(C)(C)NC(C)(C)C4)cc3)cc2)CC(C)(C)N1 [M310] | 1.2 µM

Asked: Can you share its MTT: ED50 for killing of SCLC strain SHP-77 in vitro? I mean this compound: CN(C)c1ccc(C=CC(=O)NC(Cc2ccc(OCc3c(Cl)cccc3Cl)cc2)C(=O)NC2CC(C)(C)NC(C)(C)C2)cc1 (stereo not drawn) [M582]
Given back: 3 µM

Asked: Can you share its MTT: ED50 for killing of SCLC strain SHP-77 in vitro? I mean this compound: CC1(C)CC(NC(=O)C(Cc2ccc(NS(C)(=O)=O)cc2)NC(=O)C=Cc2c(F)c(F)c(F)c(F)c2F)CC(C)(C)N1 (stereo not drawn) [M648]
Given back: Inact

Asked: Can you share its MTT: ED50 for killing of SCLC strain SHP-77 in vitro? I mean this compound: CC1(C)CC(NC(=O)[C@H](Cc2csc3ccccc23)NC(=O)CCCCCCCCCCC(=O)N[C@@H](Cc2csc3ccccc23)C(=O)NC2CC(C)(C)NC(C)(C)C2)CC(C)(C)N1 [M430]
Given back: 18 µM

====

# Test system: bradykinin response of isolated guinea pig ileum
# test_details: Anti-bradykinin activity on isolated guinea pig ileum
# assay_setup: isolated guinea pig ileum; pD2 of bradykinin is 7.4; higher numbers indicate higher potency
hey, just use rule met if measured GPI: pA2 for bradykinin antagonist activity on isolated guinea pig ileum is less than 5, otherwise rule not met

Worked examples follow.
CCOC(=O)N1CCC(NC(=O)C(Cc2ccc3ccccc3c2)NC(=O)C=Cc2ccc(N)cc2)CC1 (stereo not shown) | rule met
CC1(C)CC(NC(=O)C(Cc2ccc3ccccc3c2)NC(=O)OC(C)(C)C)CC(C)(C)N1 (stereo not shown) [M288A] | rule not met
CN1CCN(NC(=O)[C@H](Cc2ccc3ccccc3c2)NC(=O)C=Cc2ccc(NC(=O)CCCCCCCCCCC(=O)Nc3ccc(C=CC(=O)N[C@@H](Cc4ccc5ccccc5c4)C(=O)NN4CCN(C)CC4)cc3)cc2)CC1 | rule not met

Now, please, on to the next compound.
Asked: Say whether its GPI: pA2 for bradykinin antagonist activity on isolated guinea pig ileum is strictly beneath 5. Entry: "CC1(C)C=C(C(=O)NCCNC(=O)[C@H](Cc2ccc3ccccc3c2)NC(=NC2CCCCC2)NC2CCCCC2)C(C)(C)N1"
Given back: rule not met

====

# Test system: bradykinin response of isolated guinea pig ileum
# test_details: Anti-bradykinin activity on isolated guinea pig ileum
# assay_setup: isolated guinea pig ileum; pD2 of bradykinin is 7.4; higher numbers indicate higher potency
Listed next: entries and their corresponding GPI: pA2 for bradykinin antagonist activity on isolated guinea pig ileum.
// keep it numeric: no unit symbol after the value

O=C(Cc1ccc(NC(=NC2CCCCC2)NC2CCCCC2)cc1)Nc1cccc(C(=O)O)c1 | 4.6
COC(=O)CCCCCCCCC(=O)Nc1ccc(C=CC(=O)NC(C(=O)NC2CC(C)(C)NC(C)(C)C2)C2Cc3ccccc3C2)cc1 (stereo not drawn) | 5.3
CN(C)c1ccc(C=CC(=O)NC(Cc2csc3ccccc23)C(=O)NC2CC(C)(C)NC(C)(C)C2)cc1 (stereo not drawn) | 5.7
O=C(O)C(Cc1cccnc1)NC(=O)C(Cc1ccc2ccccc2c1)NC(=NC1CCCCC1)NC1CCCCC1 (stereo not drawn) | 4.9

Please turn your attention to the following entry.
Asked: Can you share its GPI: pA2 for bradykinin antagonist activity on isolated guinea pig ileum? I mean this molecule: CN(C)c1ccc(CNC(=O)C(Cc2ccc(F)cc2)NC(=O)C=Cc2c(F)c(F)c(F)c(F)c2F)cc1 (stereo not drawn)
Given back: 4.6

====

# test_system: cloned human bradykinin B2 receptors (Homo sapiens, UniProt P30411)
# Sequence (P30411 1-391): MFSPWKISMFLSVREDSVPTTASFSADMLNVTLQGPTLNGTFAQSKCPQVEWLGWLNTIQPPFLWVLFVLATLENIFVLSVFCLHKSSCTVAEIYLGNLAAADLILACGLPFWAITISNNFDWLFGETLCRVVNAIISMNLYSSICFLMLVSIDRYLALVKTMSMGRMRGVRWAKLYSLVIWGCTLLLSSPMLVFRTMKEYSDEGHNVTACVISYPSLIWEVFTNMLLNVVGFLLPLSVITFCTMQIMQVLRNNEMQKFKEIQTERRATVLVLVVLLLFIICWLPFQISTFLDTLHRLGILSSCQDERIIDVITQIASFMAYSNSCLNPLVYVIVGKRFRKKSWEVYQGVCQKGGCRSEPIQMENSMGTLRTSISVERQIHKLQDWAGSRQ
# test_details: Anti-bradykinin activity on cloned human B2 receptors (CHO cells, Cytosensor microphysiometer)
# Assay type: cell-based
# assay_setup: cloned human B2 receptors; pD2 for bradykinin is 11; higher numbers indicate higher potency
readout_name: HUMAN: pA2 for bradykinin antagonist potency on cloned human B2 receptors

Here are 8 compounds together with their reported answers.
O=C(C=Cc1cccnc1)NC(Cc1ccc2ccccc2c1)C(=O)Nc1cccc(CO)c1 (centres unmarked) | Inact
O=C(C=Cc1cccnc1)Nc1ccc(C(=O)NC(Cc2ccc3ccccc3c2)C(=O)O)cc1 (centres unmarked) | Inact
CN1CCN(NC(=O)C(Cc2ccc3ccccc3c2)NC(=O)c2cccc(NC(=O)C=Cc3c(F)c(F)c(F)c(F)c3F)c2)CC1 (centres unmarked) | Inact
CN1CCN(NC(=O)C(Cc2ccc3ccccc3c2)NC(=O)C=Cc2ccc(N(C)C)cc2)CC1 (centres unmarked) | Inact
CC1(C)CC(NC(=O)[C@H](Cc2ccc3ccccc3c2)NC(=NC2CCCCC2)NC2CCCCC2)CC(C)(C)N1 | Inact
CN(C)CCCNC(=O)C(Cc1ccc2ccccc2c1)NC(=O)C=Cc1c(F)c(F)c(F)c(F)c1F (centres unmarked) | Inact
CC1(C)CC(NC(=O)C(Cc2cccnc2)NC(=O)C=Cc2c(F)c(F)c(F)c(F)c2F)CC(C)(C)N1 (centres unmarked) | 10
CC1(C)CC(NC(=O)C(NC(=O)C=Cc2ccc(NC(=O)CCCCCCCCC(=O)O)cc2)C2Cc3ccccc3C2)CC(C)(C)N1 (centres unmarked) | 12.3

Asked: Hi! What's the reported HUMAN: pA2 for bradykinin antagonist potency on cloned human B2 receptors for CC1(C)CC(NC(=O)C(Cc2ccc(OCc3c(Cl)cccc3Cl)cc2)NC(=O)C(C#N)=Cc2ccc(O)cc2)CC(C)(C)N1 (centres unmarked) on cloned human bradykinin B2 receptors (Homo sapiens, UniProt P30411)?
Given back: 10.8

Asked: Hi! What's the reported HUMAN: pA2 for bradykinin antagonist potency on cloned human B2 receptors for "CC1(C)CC(NC(=O)[C@H](Cc2ccc3ccccc3c2)NC(=O)C=Cc2ccc(NC(=O)CCCCCCCCCCC(=O)Nc3ccc(C=CC(=O)N[C@@H](Cc4ccc5ccccc5c4)C(=O)NC4CC(C)(C)NC(C)(C)C4)cc3)cc2)CC(C)(C)N1" on cloned human bradykinin B2 receptors (Homo sapiens, UniProt P30411)?
Given back: Inact

Asked: Hi! What's the reported HUMAN: pA2 for bradykinin antagonist potency on cloned human B2 receptors for O=C(C=Cc1cccnc1)NC(Cc1ccc2ccccc2c1)C(=O)NC1CCCCC1 (centres unmarked) on cloned human bradykinin B2 receptors (Homo sapiens, UniProt P30411)?
Given back: 11.5
